Origin of values: PubChem BioAssay AID1159580

test: chemical genetic growth profiling, strain panel (AID 1159580);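 further: tested at 20 µM; growth read once vehicle control cultures reached saturation at 30 °C; 1 = growth at the plate median or of vehicle wells; lower values mean less growth of the strain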; settings: S. cerevisiae deletion strains, growth OD, locus YGL078C, strain dbp3, stronger effect = lower value
Screen size: about 5,500 compounds; about 2,000 (36%) were called active. About 18% were inconclusive and are not listed. The list shows a part of the results.
Please respond with reported normalized growth for every item in the list.
One number for each entry.

Consider the reported normalized growth for these compounds:
[[record]]
compound = "CC[C@H]1OC(=O)[C@H](C)[C@@H](O[C@H]2C[C@@](C)(OC)[C@@H](O)[C@H](C)O2)[C@H](C)[C@@H](O[C@@H]2O[C@H](C)C[C@H](N(C)C)[C@H]2O)[C@](C)(O)C[C@@H](C)/C(=N/OCOCCOC)[C@H](C)[C@@H](O)[C@]1(C)O"
number = 1

[[record]]
compound = "O=C1c2ccccc2C(=O)c2ccccc21"
number = 0.978

[[record]]
compound = "CC(C)=CCC/C(C)=C/CO"
number = 0.984

[[record]]
compound = "CC(NC(C)(C)C)C(=O)c1cccc(Cl)c1 (stereo not drawn)"
number = 1

[[record]]
compound = "O=C(O)CCC(=O)OC[C@@H](NC(=O)C(Cl)Cl)[C@H](O)c1ccc([N+](=O)[O-])cc1"
number = 0.995

[[record]]
compound = "COc1ccc([C@@H](C)C(=O)c2ccc(O)cc2O)cc1"
number = 0.981

[[record]]
compound = "O=C(N[C@@H](CO)[C@H](O)c1ccc([N+](=O)[O-])cc1)C(Cl)Cl"
number = 1

[[record]]
compound = "COC1=CC23CCCN2CCc2cc4c(cc2C3C1O)OCO4 (stereo not drawn)"
number = 0.997

[[record]]
compound = "CC(C)N1C(=O)c2ccccc2NS1(=O)=O"
number = 0.993

[[record]]
compound = "C=C[C@H]1CN2CC[C@H]1C[C@H]2[C@H](O)c1ccnc2ccccc12"
number = 0.985


Okay, here is my list. What is normalized growth for each of these?
1. COc1cc(O)c2c(c1)C(=O)c1cc(C)cc(O)c1C2=O
2. CCC[C@@H]1C[C@@H](C(=O)N[C@H]([C@H]2O[C@H](SC)[C@H](O)[C@@H](O)[C@H]2O)[C@H](C)O)N(C)C1
3. CC(C)Cn1c(=O)n(C)c(=O)c2[nH]cnc21
4. O=C1C=C(O)c2ccccc2C1=O
5. O=C(Nc1ccc([N+](=O)[O-])cc1Cl)c1cc(Cl)ccc1O

[1.01, 0.981, 0.992, 1.01, 1.01]

Okay, here is my list. What is normalized growth for each of these?
1. CC(C)[C@@H]1CC[C@@H](C)CC1=O
2. CNC(C)(C)Cc1ccccc1
3. CC(C)N=C(N)N=C(N)Nc1ccc(Cl)cc1

1. 1
2. 0.998
3. 1.01
